Target: Aminopeptidase B (Rattus norvegicus, UniProt O09175)
Sequence (O09175 whole entry): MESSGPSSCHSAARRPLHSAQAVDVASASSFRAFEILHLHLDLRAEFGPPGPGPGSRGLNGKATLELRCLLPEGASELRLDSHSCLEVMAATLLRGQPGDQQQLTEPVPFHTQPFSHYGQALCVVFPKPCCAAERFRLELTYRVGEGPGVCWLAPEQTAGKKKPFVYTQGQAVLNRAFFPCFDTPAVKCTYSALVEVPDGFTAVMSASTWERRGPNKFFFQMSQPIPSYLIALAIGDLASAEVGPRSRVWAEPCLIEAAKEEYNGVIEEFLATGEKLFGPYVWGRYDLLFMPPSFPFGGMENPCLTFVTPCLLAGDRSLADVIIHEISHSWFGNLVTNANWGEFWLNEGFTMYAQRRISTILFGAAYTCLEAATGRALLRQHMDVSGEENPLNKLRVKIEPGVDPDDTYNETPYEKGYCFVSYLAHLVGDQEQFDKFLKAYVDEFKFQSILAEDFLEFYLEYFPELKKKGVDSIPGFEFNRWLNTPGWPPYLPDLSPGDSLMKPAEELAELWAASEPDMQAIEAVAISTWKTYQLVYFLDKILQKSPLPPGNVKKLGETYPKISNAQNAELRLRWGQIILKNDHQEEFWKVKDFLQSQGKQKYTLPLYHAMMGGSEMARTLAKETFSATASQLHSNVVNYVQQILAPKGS
Experiment: Competitive inhibition of aminopeptidase B or arginyl aminopeptidase purified from rat liver; Ki value reporting the slope effect(Kis)
QUANTITY: Ki (nM)

Examples with answers:
| COMPOUND | TARGET | QUANTITY | VAL |
| --- | --- | --- | --- |
| CC(C)C[C@H](N)C(=O)CC(Cc1ccccc1)C(=O)O (stereo partly specified) | Aminopeptidase B (Rattus norvegicus, UniProt O09175) | Ki | 170 |
| CC(C)CC(N)C(=O)CC(C)C(=O)O (stereo unspecified) | Aminopeptidase B (Rattus norvegicus, UniProt O09175) | Ki | 130000 |
| CC(CC(=O)[C@@H](N)CCCCN)C(=O)O (stereo partly specified) | Aminopeptidase B (Rattus norvegicus, UniProt O09175) | Ki | 2000 |

(I) CC(C)CCNC(=O)[C@@H](NC(=O)[C@H](CC(=O)[C@@H](N)CC(C)C)Cc1ccccc1)C(C)C
(II) CC(C)C[C@@H](N)C(=O)CC(Cc1ccccc1)C(=O)O (stereo partly specified)
(III) NCCCC[C@H](N)C(=O)CC(Cc1ccccc1)C(=O)O (stereo partly specified)
[ask] # rank_down: sort by Ki, max first List each label, following the requested order.
[reply] I, II, III
